System: LOC_OS01G70970-cb002;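 further: purified Escherichia coli-expressed rice kinase domain construct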
Assay: thermal shift delta Tm vs DMSO control; higher = stronger stabilization (binding)
Conditions: 12.5 µM; protein concentration 2 µM
Structures can show the parent of a compound that is named as a salt.
Use label 1 when the recorded thermal shift delta Tm is no lower than 0.5 °C; use label 0 when it is lower.

Record excerpt, results attached:
CNCc1ccc(-c2cc(-c3nc(-c4ccc(S(=O)(=O)C(C)C)cc4)cnc3N)on2)cc1 : label 0
O=c1[nH]nc(Sc2ncc([N+](=O)[O-])s2)n1-c1ccc2c(c1)OCCO2 : label 0
OC(c1cc(-c2ccc(Cl)cc2)nc2ccccc12)C1CCCCN1 (stereo not given) : label 0
Cc1ccc(NC(=O)c2ccc(CN3CCN(C)CC3)cc2)cc1Nc1nccc(-c2cccnc2)n1 [Imatinib (STI571)] : label 0
COc1cc(Nc2ncc(F)c(Nc3ccc4c(n3)NC(=O)C(C)(C)O4)n2)cc(OC)c1OC : label 1

// query Quick check: does CN1CC[C@H](c2c(O)cc(O)c3c(=O)cc(-c4ccccc4Cl)oc23)[C@H](O)C1 [Flavopiridol HCl] have thermal shift delta Tm greater than or equal to 0.5 °C?
// result label 1

// query Quick check: does `CCOc1cc(C(=O)N2CCC(N3CCN(C)CC3)CC2)ccc1Nc1ncc2c(n1)N(C1CCCC1)c1ccccc1C(=O)N2C` have thermal shift delta Tm greater than or equal to 0.5 °C?
// result label 0
